Molecular target: WNK2 (human) (UniProt Q9Y3S1)
Sequence (Q9Y3S1 whole entry, looked up): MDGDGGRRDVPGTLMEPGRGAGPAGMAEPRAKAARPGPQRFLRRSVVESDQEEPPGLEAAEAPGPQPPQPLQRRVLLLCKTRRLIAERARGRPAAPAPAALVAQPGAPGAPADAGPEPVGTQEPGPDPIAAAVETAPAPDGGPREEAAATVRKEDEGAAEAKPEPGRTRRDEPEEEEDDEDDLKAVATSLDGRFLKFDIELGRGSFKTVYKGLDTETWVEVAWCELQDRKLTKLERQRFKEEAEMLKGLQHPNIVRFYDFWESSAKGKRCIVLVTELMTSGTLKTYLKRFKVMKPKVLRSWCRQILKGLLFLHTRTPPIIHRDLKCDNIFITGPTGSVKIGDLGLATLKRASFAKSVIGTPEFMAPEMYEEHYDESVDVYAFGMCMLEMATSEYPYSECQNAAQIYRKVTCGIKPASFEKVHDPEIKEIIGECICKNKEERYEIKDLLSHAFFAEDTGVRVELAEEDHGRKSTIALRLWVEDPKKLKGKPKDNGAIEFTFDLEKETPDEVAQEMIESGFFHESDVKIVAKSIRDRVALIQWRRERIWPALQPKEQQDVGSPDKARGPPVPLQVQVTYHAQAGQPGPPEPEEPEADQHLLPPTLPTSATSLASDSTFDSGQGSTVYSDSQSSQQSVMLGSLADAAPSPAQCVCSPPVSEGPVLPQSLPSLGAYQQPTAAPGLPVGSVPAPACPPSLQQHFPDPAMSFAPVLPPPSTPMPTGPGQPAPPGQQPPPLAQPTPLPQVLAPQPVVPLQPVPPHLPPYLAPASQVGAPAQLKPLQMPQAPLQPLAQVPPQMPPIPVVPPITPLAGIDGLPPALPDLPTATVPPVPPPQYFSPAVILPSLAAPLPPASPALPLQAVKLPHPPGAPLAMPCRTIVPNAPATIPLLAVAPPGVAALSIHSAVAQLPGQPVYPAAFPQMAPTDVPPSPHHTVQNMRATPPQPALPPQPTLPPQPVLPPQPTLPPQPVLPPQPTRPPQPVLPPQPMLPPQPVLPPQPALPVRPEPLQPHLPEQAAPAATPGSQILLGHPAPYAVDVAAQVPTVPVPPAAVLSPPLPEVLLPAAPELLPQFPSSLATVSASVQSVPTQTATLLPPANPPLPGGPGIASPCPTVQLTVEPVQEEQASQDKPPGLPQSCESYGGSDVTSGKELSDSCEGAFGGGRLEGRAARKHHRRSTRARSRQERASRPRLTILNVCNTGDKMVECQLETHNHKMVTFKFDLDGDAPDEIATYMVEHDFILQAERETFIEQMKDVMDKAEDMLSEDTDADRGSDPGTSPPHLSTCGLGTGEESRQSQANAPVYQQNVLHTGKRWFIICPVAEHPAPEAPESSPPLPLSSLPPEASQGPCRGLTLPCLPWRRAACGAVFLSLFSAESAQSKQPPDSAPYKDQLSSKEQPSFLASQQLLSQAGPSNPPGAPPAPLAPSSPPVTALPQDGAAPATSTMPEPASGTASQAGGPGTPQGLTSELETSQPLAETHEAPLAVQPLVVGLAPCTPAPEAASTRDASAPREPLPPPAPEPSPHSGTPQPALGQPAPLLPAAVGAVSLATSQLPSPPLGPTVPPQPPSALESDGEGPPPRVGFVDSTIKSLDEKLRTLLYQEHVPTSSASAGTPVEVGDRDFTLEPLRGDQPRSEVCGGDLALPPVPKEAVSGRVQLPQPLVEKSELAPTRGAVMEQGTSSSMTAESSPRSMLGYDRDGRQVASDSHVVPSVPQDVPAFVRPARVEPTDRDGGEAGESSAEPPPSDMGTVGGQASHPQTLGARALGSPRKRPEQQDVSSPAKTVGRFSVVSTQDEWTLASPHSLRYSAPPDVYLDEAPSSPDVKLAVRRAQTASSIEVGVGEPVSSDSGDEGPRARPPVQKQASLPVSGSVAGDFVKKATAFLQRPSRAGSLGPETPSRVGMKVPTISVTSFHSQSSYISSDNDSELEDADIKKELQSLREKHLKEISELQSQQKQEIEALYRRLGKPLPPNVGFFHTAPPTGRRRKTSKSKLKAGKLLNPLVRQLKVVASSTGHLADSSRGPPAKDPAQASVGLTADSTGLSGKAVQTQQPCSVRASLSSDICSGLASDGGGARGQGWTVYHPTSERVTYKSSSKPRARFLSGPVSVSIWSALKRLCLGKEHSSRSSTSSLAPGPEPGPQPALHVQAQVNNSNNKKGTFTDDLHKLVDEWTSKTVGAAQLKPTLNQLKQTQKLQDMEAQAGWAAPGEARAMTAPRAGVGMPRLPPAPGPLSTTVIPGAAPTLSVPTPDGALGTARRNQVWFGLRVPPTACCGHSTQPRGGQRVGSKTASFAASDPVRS
Test: radiometric filter-binding kinase assay, Kinase HotSpot
Conditions: compound 0.5 µM; ATP 10 µM
READOUT: residual activity (%)
Answers are plain numbers, in %.

{"columns": ["SMILES_REPRESENTATION", "READOUT", "VALUE"],
 "data": [
  ["Cn1nc2c3c(cccc31)C(=O)c1ccccc1-2", "residual activity", 104],
  ["Nc1nccc(-c2c(-c3ccc(F)cc3)ncn2C2CCNCC2)n1", "residual activity", 93.1],
  ["O=C1NC(=O)C(c2c[nH]c3ccccc23)=C1c1c[nH]c2ccccc12", "residual activity", 92.7],
  ["CCN(CC)CCCCN1c2ccccc2Oc2ccc(Cl)cc21", "residual activity", 119],
  ["COc1ccc(CNC(=O)Nc2ncc([N+](=O)[O-])s2)cc1", "residual activity", 104]
]}

Here's the next entry for you.
Noted for COc1cc2ncc(-c3ccccc3)nc2cc1OC : its residual activity reads 104
